measuredTarget: recombinant murine VEGF164 (mouse) (UniProt Q00731)
testDetails: Biacore SPR, VEGF immobilized, pH 5
reportedMetric: koff (s⁻¹)
Give just the numeric value; s⁻¹ need not be written.

Recorded results for 3 binders are shown here.
{"binder": "509-maxII (scFv, VH tied by name; also called Protein Nr) scFv: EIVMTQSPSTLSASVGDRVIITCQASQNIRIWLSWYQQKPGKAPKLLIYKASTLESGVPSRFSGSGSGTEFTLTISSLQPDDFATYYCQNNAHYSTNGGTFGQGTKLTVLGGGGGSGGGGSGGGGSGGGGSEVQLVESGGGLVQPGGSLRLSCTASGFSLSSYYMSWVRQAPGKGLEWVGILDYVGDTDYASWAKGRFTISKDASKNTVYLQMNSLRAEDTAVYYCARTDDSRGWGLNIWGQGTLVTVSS", "reportedMetric": "koff", "recordedValue": 0.0601}
{"binder": "578-max (scFv, also called EP578max; #821) scFv: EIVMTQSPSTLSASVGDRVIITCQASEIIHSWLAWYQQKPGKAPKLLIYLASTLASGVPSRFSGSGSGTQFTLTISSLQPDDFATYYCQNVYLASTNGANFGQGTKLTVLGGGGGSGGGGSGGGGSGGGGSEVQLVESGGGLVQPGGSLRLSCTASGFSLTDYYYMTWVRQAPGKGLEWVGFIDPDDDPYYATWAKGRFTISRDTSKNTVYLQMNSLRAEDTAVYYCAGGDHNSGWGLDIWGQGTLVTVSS", "reportedMetric": "koff", "recordedValue": 0.00044}
{"binder": "509-max (scFv, VL and VH tied by name; also called Protein Nr; 855) scFv: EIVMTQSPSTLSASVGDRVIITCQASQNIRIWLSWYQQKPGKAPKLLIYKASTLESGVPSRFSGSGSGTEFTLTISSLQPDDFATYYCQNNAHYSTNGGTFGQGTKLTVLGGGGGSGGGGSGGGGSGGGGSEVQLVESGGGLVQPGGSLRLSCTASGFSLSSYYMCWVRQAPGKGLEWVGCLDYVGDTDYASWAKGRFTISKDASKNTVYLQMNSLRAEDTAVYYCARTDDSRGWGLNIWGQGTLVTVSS", "reportedMetric": "koff", "recordedValue": 0.0059}

As a next step, examine the binder that follows.
Ask: // fetch koff given entry 578minmax (scFv, also called ESBA903; 903) scFv: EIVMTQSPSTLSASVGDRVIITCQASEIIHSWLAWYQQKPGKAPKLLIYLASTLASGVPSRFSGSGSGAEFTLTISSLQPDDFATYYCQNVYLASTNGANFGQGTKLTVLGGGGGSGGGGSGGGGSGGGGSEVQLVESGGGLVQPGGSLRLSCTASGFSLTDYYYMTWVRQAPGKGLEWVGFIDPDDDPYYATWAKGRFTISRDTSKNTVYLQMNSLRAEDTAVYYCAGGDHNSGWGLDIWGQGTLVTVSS
Result: 0.000657
